All values here come from patent US8642532B2.

# system.under.test: Myoglobin (Horse Skeleton) (Equus caballus)
# Construct: Myoglobin (Horse Skeleton, Sigma) was made into a stock solution (10 mg/ml); purchased Sigma; host or cells: horse skeletal muscle ('Horse Skeleton' [sic])
# Sequence (P68082 whole entry): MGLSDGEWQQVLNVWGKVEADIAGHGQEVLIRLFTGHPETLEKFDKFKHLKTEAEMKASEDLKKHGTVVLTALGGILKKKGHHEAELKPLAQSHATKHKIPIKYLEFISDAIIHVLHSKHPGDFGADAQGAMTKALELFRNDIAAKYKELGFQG
# protocol.notes: Inhibition of myoglobin thermal aggregation at 65° C.
# Format: physicochemical
# test.parameters: pH 9.0, 5 weeks, one cell for all [X] of the excipient
quantity.measured: Formation of fibrillation precipitates (PPT)

compound	result
O=Cc1ccc(S(=O)(=O)O)cc1S(=O)(=O)O [4-Formyl-1,3-benzenedisulfonic Acid, 4-Formyl-1,3-benzenedisulfonic acid]	Clear
O=CC(=O)O [Glyoxylic Acid]	Precipitate
O=C(O)C(=O)c1ccccc1 [Phenylglyoxylic Acid]	Precipitate
O=Cc1cc(C(=O)O)ccc1O [3-Formyl-4-hydroxylbenzoic Acid]	Precipitate
